method_description: Terminal half life in human at 20 mg administered under fasting condition presence of 300 mg of ritonavir
Format: ADME, organism-based
run_parameters: in vivo, read-out: beta t1/2 (converted)
recorded_metric: half-life (h)

* Nc1nc(=O)n([C@@H]2C=C[C@H](CO)O2)cc1F [ELVUCITABINE] | 60.2

* * *

method_description: Clearance in human at 20 mg administered under fasting condition
Assay type: ADME, organism-based
run_parameters: in vivo
recorded_metric: clearance (mL/min)

* Nc1nc(=O)n([C@@H]2C=C[C@H](CO)O2)cc1F [ELVUCITABINE] | 293

* * *

method_description: AUC (0 to t) in human at 20 mg administered under fasting condition
Format: ADME, organism-based
run_parameters: plasma
recorded_metric: AUC(0-t) (ng·h/mL)

* Nc1nc(=O)n([C@@H]2C=C[C@H](CO)O2)cc1F [ELVUCITABINE] | 1030
